Biological target: prostaglandin G/H synthase-1 (Ovis aries)
Construct: purified from ram seminal vesicles; from tissue; host or cells: ram seminal vesicles
Sequence (P05979 25-600): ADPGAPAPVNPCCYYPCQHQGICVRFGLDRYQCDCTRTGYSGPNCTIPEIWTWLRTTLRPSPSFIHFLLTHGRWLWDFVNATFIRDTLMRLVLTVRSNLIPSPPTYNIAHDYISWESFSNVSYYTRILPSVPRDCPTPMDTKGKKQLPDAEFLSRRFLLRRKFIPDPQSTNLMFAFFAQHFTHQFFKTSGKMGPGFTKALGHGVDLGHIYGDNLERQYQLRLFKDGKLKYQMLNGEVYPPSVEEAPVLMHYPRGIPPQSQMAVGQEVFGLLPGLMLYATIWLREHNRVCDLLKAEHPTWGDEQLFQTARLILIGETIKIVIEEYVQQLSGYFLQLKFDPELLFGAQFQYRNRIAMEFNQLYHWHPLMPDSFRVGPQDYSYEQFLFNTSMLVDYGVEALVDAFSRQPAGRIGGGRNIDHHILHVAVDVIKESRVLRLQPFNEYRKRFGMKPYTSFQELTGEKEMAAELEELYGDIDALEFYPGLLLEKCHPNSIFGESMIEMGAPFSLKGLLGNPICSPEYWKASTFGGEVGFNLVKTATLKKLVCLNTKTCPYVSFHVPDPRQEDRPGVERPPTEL
Assay: Inhibition of prostaglandin G/H synthase-1 (conversion of [14C]arachidonic acid to products)
Type: biochemical
Conditions: pH 7.4, read-out: % Inhibition of PGHS-1 at 100 μM, 100 μM; enzyme purified from ram seminal vesicles; 15 min preincubation, pH 7.4, room temperature

MOLECULE: COC(=O)CSC(c1ccc(OC)cc1)c1ccc(OC)cc1 [Example 2]
TGT: prostaglandin G/H synthase-1 (Ovis aries)
inhibition at 100 µM: < 10%
//
MOLECULE: COC(=O)CSC(c1ccccc1)c1ccccc1 [Example 1, Methyl [(diphenylmethyl)thio]acetate]
TGT: prostaglandin G/H synthase-1 (Ovis aries)
inhibition at 100 µM: 42%
//
MOLECULE: COC(=O)CSC(c1ccccc1Cl)c1ccccc1Cl [Example 7]
TGT: prostaglandin G/H synthase-1 (Ovis aries)
inhibition at 100 µM: < 10%
//
MOLECULE: COC(=O)CSC(c1ccc(F)cc1)c1ccc(F)cc1 [Example 5]
TGT: prostaglandin G/H synthase-1 (Ovis aries)
inhibition at 100 µM: < 10%
//
MOLECULE: COC(=O)CSC(c1ccc(C)cc1)c1ccc(C)cc1 [Example 6]
TGT: prostaglandin G/H synthase-1 (Ovis aries)
inhibition at 100 µM: < 10%

# credit: patent US5571825A
